Ref: patent US10670605B2

Task for the reader: assign each of the following compounds its reported isoTOP-ABPP reactivity ratio, Q16763_C118.
target.system: UBE2S C118 (Q16763) (Homo sapiens)
Sequence (Q16763 whole entry): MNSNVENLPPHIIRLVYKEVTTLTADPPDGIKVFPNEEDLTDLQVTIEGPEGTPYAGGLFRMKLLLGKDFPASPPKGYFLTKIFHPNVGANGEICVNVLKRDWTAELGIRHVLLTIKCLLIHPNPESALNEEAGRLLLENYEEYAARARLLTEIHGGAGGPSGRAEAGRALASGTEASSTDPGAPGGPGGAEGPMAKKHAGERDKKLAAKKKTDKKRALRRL
procedure.summary: Competitive isoTOP-ABPP, cell lysates
Type: binding
experimental.parameters: 500 μm, in-vitro_ramos
Answers are plain numbers.

Past entries and their recorded results:
* C=CC(=O)Nc1cc(F)c(N2CCN(C(=O)OC(C)(C)C)CC2)c(F)c1 [compound 38] | 1.0
* C=CC(=O)Nc1cc(C)c(Br)cc1C [compound 40] | 0.8
* Cc1ccc(C=C(C#N)C(=O)NCCN2CCOCC2)cc1 [compound 41] | 3.4

Hi team, please reply with isoTOP-ABPP reactivity ratio, Q16763_C118 for each item in this list.
1. CC(C)(C)c1cc(NC(=O)CCl)on1 [compound 32]
2. C=CC(=O)N(Cc1cccnc1)c1cc(C(F)(F)F)cc(C(F)(F)F)c1 [compound 31]
3. CCN(CC)c1ccc(S(N)(=O)=O)cc1NC(=O)CCl [compound 30]

Response given:
1. 1.1
2. 0.8
3. 1.1

----------
Task for the reader: assign each of the following compounds its reported isoTOP-ABPP ratio (reactivity profile), P24752_C126.
target.system: UniProt P24752
Sequence (P24752 34-427): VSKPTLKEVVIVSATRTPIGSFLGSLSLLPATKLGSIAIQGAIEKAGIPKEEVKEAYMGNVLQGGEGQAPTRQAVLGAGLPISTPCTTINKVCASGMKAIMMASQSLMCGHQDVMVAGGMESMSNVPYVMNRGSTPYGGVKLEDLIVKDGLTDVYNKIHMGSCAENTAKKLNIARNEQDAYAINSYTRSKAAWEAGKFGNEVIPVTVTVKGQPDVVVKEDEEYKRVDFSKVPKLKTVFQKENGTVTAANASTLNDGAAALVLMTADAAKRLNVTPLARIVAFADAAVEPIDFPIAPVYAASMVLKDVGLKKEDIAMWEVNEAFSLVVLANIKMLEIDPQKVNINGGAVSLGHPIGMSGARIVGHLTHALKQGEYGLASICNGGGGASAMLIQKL
procedure.summary: Competitive isoTOP-ABPP, cell lysates
Assay type: binding
experimental.parameters: 500 μm in-vitro ramos_231
Answers are plain numbers.

Past entries and their recorded results:
- COc1ccccc1OCCNC(=O)CCl [compound 28]: 1.7
- CC(Cl)C(=O)Nc1cc(C(F)(F)F)cc(C(F)(F)F)c1 (stereo not shown) [compound 25]: 0.9
- O=C(CCl)N1CCC(C(O)(c2ccccc2)c2ccccc2)CC1 [compound 20]: 10.6
- O=C(CCl)N1CCN(CC(=O)N2CCOCC2)CC1 [compound 29]: 1.1
- N#C/C(=C\c1cc(C(F)(F)F)cc(C(F)(F)F)c1)C(N)=O [compound 23]: 0.8

Hi team, please reply with isoTOP-ABPP ratio (reactivity profile), P24752_C126 for each item in this list.
1. O=C(CCl)N1CCOCC1 [compound 22]
2. O=C(CCl)NC12CC3CC(CC(C3)C1)C2 [compound 21]

Response given:
2.4
1.2

----------
Task for the reader: assign each of the following compounds its reported isoTOP-ABPP ratio P35658_C728.
target.system: cysteines in MDA-MB-231 and Ramos cells (Homo sapiens)
Sequence (P35658 whole entry, the tested form may be a part): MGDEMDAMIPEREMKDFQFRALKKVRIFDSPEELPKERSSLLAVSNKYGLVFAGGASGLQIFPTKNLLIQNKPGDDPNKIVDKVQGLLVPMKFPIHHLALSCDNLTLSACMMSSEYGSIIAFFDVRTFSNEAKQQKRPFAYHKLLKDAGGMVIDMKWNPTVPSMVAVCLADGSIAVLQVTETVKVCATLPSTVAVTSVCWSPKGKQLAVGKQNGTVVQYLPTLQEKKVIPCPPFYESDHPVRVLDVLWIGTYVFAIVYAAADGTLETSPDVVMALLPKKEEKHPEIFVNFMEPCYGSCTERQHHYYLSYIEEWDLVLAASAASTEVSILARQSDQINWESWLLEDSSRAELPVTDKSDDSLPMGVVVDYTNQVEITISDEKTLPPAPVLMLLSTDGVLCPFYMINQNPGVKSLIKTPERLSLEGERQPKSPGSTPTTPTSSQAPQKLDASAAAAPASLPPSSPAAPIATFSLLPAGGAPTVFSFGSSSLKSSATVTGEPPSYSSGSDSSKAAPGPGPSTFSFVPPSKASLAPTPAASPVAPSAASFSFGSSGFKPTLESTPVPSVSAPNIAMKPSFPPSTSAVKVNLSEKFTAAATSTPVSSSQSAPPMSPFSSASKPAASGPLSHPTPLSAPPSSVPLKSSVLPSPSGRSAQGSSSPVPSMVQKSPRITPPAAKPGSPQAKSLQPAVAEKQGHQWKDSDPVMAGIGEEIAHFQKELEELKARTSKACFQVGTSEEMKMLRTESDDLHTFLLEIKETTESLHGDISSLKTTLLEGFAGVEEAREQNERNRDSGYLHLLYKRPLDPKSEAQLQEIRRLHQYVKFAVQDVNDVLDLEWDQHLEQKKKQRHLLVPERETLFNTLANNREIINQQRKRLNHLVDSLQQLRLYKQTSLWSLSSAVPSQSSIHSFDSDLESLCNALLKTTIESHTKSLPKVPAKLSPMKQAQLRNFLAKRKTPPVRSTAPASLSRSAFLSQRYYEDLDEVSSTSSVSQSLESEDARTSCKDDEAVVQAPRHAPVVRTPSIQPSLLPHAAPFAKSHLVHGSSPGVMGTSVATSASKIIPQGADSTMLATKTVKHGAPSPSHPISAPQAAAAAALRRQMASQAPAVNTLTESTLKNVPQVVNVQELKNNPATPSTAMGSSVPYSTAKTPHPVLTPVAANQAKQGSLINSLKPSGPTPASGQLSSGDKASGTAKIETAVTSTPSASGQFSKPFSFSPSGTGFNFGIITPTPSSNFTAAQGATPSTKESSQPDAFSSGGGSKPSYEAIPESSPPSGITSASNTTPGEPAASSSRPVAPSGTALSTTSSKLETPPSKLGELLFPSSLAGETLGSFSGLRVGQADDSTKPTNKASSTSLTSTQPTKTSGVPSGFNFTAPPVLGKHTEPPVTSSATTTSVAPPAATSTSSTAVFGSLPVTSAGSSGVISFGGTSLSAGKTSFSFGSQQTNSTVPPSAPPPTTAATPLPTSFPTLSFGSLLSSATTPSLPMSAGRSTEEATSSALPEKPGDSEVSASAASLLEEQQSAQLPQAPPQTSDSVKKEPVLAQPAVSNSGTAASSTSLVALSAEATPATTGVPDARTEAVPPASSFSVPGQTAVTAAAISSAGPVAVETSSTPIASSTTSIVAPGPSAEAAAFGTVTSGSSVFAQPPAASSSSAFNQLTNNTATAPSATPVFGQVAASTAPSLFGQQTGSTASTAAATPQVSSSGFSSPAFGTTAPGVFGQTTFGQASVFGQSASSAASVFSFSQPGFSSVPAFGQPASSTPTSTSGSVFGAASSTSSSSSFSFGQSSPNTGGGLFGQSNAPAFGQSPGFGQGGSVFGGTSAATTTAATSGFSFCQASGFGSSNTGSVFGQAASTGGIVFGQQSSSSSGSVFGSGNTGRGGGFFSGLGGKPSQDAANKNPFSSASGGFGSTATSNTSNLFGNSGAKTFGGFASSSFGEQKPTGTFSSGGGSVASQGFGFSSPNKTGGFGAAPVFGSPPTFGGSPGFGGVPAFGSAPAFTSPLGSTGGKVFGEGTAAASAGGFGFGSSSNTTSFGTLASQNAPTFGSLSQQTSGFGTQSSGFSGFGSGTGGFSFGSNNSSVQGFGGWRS
procedure.summary: Competitive isoTOP-ABPP in situ (fragment-treated cells)
Assay type: cell-based
experimental.parameters: 200 μM, insitu, 231
One number for each entry.

Past entries and their recorded results:
* C=CC(=O)N(Cc1cccnc1)c1cc(C(F)(F)F)cc(C(F)(F)F)c1 [compound 31] | 0.7
* O=C(CCl)N1CCN(S(=O)(=O)c2ccccc2F)CC1 [compound 10] | 20.0
* CC1CCc2ccccc2N1C(=O)CCl (stereo not drawn) [compound 45] | 3.1
* O=C(CCl)NC12CC3CC(CC(C3)C1)C2 [compound 21] | 1.3
* Cc1ccc(C=C(C#N)C(=O)NCCN2CCOCC2)cc1 [compound 41] | 1.1

Moving on to another compound below.
Challenge: # isoTOP-ABPP ratio P35658_C728 lookup, item O=C(CCl)NCCc1c[nH]c2ccccc12 [compound 13]
Response given: 1.0

----------
Task for the reader: assign each of the following molecules its reported isoTOP-ABPP reactivity profile ratio, P63244_C182.
target.system: GNB2L1 C182 (P63244) (Homo sapiens, UniProt P63244)
procedure.summary: Competitive isoTOP-ABPP, cell lysates;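 on isoTOP-ABPP reactivity profile ratio, P63244 C182: Heavy/light ratio DMSO over fragment-treated so higher means more cysteine engagement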
Type: binding
experimental.parameters: 500 μm, in-vitro_ramos
One number for each entry.

Past entries and their recorded results:
* O=C(CCl)Nc1cccc2ncccc12 [compound 51] | 0.9
* COc1cc(NC(=O)CCl)cc(OC)c1 [compound 43] | 0.9
* N#CC(=Cc1ccc(-c2ccccc2Cl)o1)C(N)=O [compound 42] | 0.8

Challenge: # isoTOP-ABPP reactivity profile ratio, P63244_C182 lookup, item C=CC(=O)N1CCC(Cc2ccccc2)CC1 [compound 53]
Response given: 0.8
